# protocolNotes: TEAD-YAP interaction inhibition, primary screen, TEAD-YAP interaction inhibitor project, luminescence, HEK-TIYL cells (AID 1259422);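 also: 0% = median of test compound wells and 100% = reference inhibitor wells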
# testSettings: TEAD-Gal4/YAP UAS-luciferase luminescence, at 9.12 µM
Among all 640,000 compounds or so, about 9,300 (1.5%) were called active. Rule as the data show it: active = inhibition above about 32%; inactive = the rest. The entries come from a sample that favours actives as a whole.
Write down one outcome, taken from active, inactive

What outcome does the record of this test show for CCSCCOC(=O)C1=C(C)NC2=C(C(=O)CC(c3cccs3)C2)C1c1ccsc1 (stereo not given) ?
inactive

# outcome recorded in this test, key = CCOCCOC(=O)C1=C(C)NC2=C(C(=O)CC(c3cccs3)C2)C1c1ccc(OC(C)=O)cc1 (stereo not given)
inactive

# outcome recorded in this test, key = CCCOC(=O)c1[nH]c2c(c1C)C(=O)CC(c1cccs1)C2 (stereo not given)
active

Called result for COc1ccc2oc(=O)c(S(=O)(=O)c3ccc(C)cc3)cc2c1
inactive

How was O=C(O)C1CN(C(c2ccccc2)c2ccccc2)C1 classified in this test?
inactive

What call does the record list for CCSCCOC(=O)C1=C(C)NC2=C(C(=O)CC(c3ccccc3)C2)C1c1ccccc1 (stereo not given) ?
inactive

What classification did NC(=O)c1ccc(-c2nc(NC3CC3)c3ncn(C4CCCCC4)c3n2)cc1 end up with in this test?
inactive

Recorded test outcome, item Cc1nnc(NS(=O)(=O)c2ccc([N+](=O)[O-])cc2)s1
inactive

In this assay, the call recorded for CSCCOC(=O)c1[nH]c2c(c1C)C(=O)CC(c1cccs1)C2 (stereo not given) was what?
active

Fill in: this test's call for CC(C)c1ccc(CN[C@H]2C[C@H]3C(=O)N[C@H]([C@H](C)O)C(=O)N3C2)cc1 is ___
inactive

====

A collection of molecules and their measured inhibition
# protocolNotes: TEAD-YAP interaction inhibition, primary screen, TEAD-YAP interaction inhibitor project, luminescence, HEK-TIYL cells (AID 1259422);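 also: 0% = median of test compound wells and 100% = reference inhibitor wells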
# testSettings: TEAD-Gal4/YAP UAS-luciferase luminescence, at 9.12 µM, stronger effect = higher value
Screen size: about 640,000 compounds; about 9,300 (1.5%) were called active. Only a selection was taken, and actives are over-represented in it overall.
Give just the numeric value; % need not be written.

Solved entries (count: 5):
smi=COc1cc(CN2CCN(c3ccccc3OC)CC2)cc(OC)c1 measurename=inhibition value=4.91
smi=Nc1c(C(=O)O)cnn1-c1ccccc1 measurename=inhibition value=35.4
smi=O=C(c1n[nH]c(=O)c2ccccc12)N1CCN(Cc2ccccc2)CC1 measurename=inhibition value=-7.02
smi=O=C(Cc1ccccc1)Nc1c(C(=O)N2CCCCCC2)cnn1-c1ccccc1 measurename=inhibition value=-25.7
smi=O=C(O)CCC(=O)N1CCC(c2nc3ccc(Cl)cc3[nH]2)CC1 measurename=inhibition value=1.09

Shift focus to the following entry.
Param item = COc1cc(OC)c(OC)cc1CN1CCN(c2ccccc2F)CC1 ; retrieve measured inhibition.
2.95

====

Collected inhibition values appear next to each entry.
# protocolNotes: TEAD-YAP interaction inhibition, primary screen, TEAD-YAP interaction inhibitor project, luminescence, HEK-TIYL cells (AID 1259422);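 also: 0% = median of test compound wells and 100% = reference inhibitor wells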
# testSettings: TEAD-Gal4/YAP UAS-luciferase luminescence, at 9.12 µM, stronger effect = higher value
In all, about 640,000 compounds went through this assay and about 9,300 (1.5%) were called active. Shown is part of a subset that was picked to be rich in actives.
Number in %, nothing else.

// lookup inhibition for CCCOc1ccc(N2C(=O)CC(NCCc3ccc(Cl)cc3)C2=O)cc1 (centres undefined)
-11

Can you look up the measured inhibition of COC(=O)C1=C(C)N(C)C(=O)/C1=C\c1cc(C)n(-c2ccc(Br)cc2)c1C for me?
-6.34

I have this compound here, CC(=O)c1ccc(OC(=O)c2ccccc2Cl)cc1 , and I need its recorded inhibition.
7.46

inhibition lookup needed for CC1=C(C(=O)OCc2ccccc2)C(c2cccc(I)c2)C2=C(CC(C)(C)CC2=O)N1 (centres undefined) , thanks.
6.12

For the compound shown here, Clc1ccccc1Nc1nc(N2CCOCC2)c2ccccc2n1 , give the reported inhibition.
0.09

Quick check: inhibition of c1ccc(CNc2nc3ccccc3n2CCOc2ccccc2)cc1 ?
-21.7

Can you look up the measured inhibition of COC(=O)C1=C(C)NC(=O)/C1=C\c1cccc(OCc2ccccc2)c1 for me?
-0.2

Request the reported inhibition associated with CC(=O)Nc1ccc(NC(=O)C(=O)NCc2ccc(F)cc2)cc1
0.35

State the recorded inhibition for this entry: N#CCOc1ccc2c(=O)c(Oc3ccc4ccccc4c3)coc2c1
5.86

Field request: inhibition | item: CCOC(=O)C1CCN(S(=O)(=O)c2cc(Br)ccc2OCC)CC1
0.17

Query (compound): CCc1ccccc1-n1c(SCC(=O)Nc2nc(C)cs2)nnc1-c1cccnc1 ; field requested: inhibition
56.8
